experimental-system: IRAK4 (Homo sapiens)
Sequence (Q9NWZ3 1-460): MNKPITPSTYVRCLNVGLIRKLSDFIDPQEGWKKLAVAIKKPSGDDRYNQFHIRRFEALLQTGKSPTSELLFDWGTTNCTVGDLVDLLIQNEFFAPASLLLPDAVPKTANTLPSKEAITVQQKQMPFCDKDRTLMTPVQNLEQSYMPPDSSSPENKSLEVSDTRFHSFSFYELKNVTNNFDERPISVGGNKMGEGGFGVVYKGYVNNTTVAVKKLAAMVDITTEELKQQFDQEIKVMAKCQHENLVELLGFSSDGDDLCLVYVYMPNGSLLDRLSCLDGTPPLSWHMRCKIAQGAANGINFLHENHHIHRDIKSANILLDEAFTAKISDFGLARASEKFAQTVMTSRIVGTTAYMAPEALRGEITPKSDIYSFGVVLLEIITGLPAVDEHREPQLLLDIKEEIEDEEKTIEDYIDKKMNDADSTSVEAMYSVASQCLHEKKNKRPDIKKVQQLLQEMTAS
protocol-description: Assay for inhibitory effect of compound on IRAK4 kinase activity (KinEASE-STK S1 HTRF kit)
Format: biochemical
study-conditions: kinase 8 nM, ATP 80 µM, 37°C 90 minutes; read-out: IRAK4 HTRF IC50
We begin with a simple list: items and their reported IC50.

These solved cases illustrate the format of a correct answer.
>>> value_measured("O=C(Nc1cn(C2CCCCC2)nc1C(=O)NC1CC1)c1cccc(-c2ccn[nH]2)n1 [Compound A255]")
"100 to 1000 nM"
>>> value_measured("CC(=O)Nc1ccc(-n2cc(NC(=O)c3cccc(C(F)(F)F)n3)c(C(N)=O)n2)cc1 [Compound A12]")
"< 100 nM"

Entry O=C(Nc1cn(-c2ccccc2)nc1C1CCN1)c1cccc(-c2ccn[nH]2)n1 (stereo not shown) [Compound A245] , system IRAK4 (Homo sapiens): what IC50 was measured?
> 1000 nM

Can you check NC(=O)c1nn(-c2ccccc2)cc1NC(=O)c1cccc(C(F)(F)F)n1 [Compound A5] next?
< 100 nM
